- Organism: Homo sapiens
- protocol text: Selectivity index, ratio of IC50 for human HDAC3 to IC50 for human HDAC6
property measured: Ratio IC50

Worked set:
molecule: COc1ccc(C(=O)c2ccc3c(ccn3Cc3ccc(C(=O)NO)cc3)c2)cc1
endpoint result: 1060
//
molecule: Cc1ccc(C(=O)c2ccc3c(ccn3S(=O)(=O)c3cccc(/C=C/C(=O)NO)c3)c2)cc1
endpoint result: 0.3

I. Cc1ccc(C(=O)c2ccc3c(ccn3Cc3ccc(C(=O)NO)cc3)c2)cc1
II. O=C(NO)c1ccc(Cn2ccc3cc(C(=O)c4ccc(F)cc4)ccc32)cc1
Query: // compare measured Ratio IC50 between I and II ; output the lower one Write the label of whichever entry you select.
Result: I

* * *

- Species: Homo sapiens
- protocol text: Selectivity index, ratio of IC50 for human HDAC10 to IC50 for human HDAC6
property measured: Ratio IC50

molecule: Cc1ccc(C(=O)c2ccc3c(ccn3S(=O)(=O)c3cccc(/C=C/C(=O)NO)c3)c2)cc1
Ratio IC50: 3.3
//
molecule: COc1ccc(C(=O)c2ccc3c(ccn3S(=O)(=O)c3cccc(/C=C/C(=O)NO)c3)c2)cc1
Ratio IC50: 7.8
//
molecule: COc1ccc(C(=O)c2ccc3c(ccn3Cc3ccc(C(=O)NO)cc3)c2)cc1
Ratio IC50: 15300

A. COc1ccc(C(=O)c2ccc3c(ccn3S(=O)(=O)c3cccc(/C=C/C(=O)NO)c3)c2)cc1OC
B. COc1ccc(C(=O)c2ccc3c(ccn3Cc3ccc(/C=C/C(=O)NO)cc3)c2)cc1
C. COc1cccc(C(=O)c2ccc3c(ccn3S(=O)(=O)c3cccc(/C=C/C(=O)NO)c3)c2)c1
D. COc1ccc(C(=O)c2ccc3c(ccn3Cc3ccc(C(=O)NO)cc3)c2)cc1OC
Query: Provide the items ranked by increasing Ratio IC50. Please list the labels in the order you were asked to rank them.
Result: C, A, B, D

* * *

- Species: Homo sapiens
- protocol text: Selectivity index, ratio of IC50 for human HDAC1 to IC50 for human HDAC6
property measured: Ratio IC50

Worked set:
molecule: COc1cccc(C(=O)c2ccc3c(ccn3S(=O)(=O)c3cccc(/C=C/C(=O)NO)c3)c2)c1
endpoint result: 0.7
--
molecule: COc1ccc(C(=O)c2ccc3c(ccn3Cc3ccc(/C=C/C(=O)NO)cc3)c2)cc1
endpoint result: 13.3
--
molecule: COc1ccc(C(=O)c2ccc3c(ccn3S(=O)(=O)c3cccc(/C=C/C(=O)NO)c3)c2)cc1OC
endpoint result: 0.7
--
molecule: COc1ccc(C(=O)c2ccc3c(ccn3Cc3ccc(C(=O)NO)cc3)c2)cc1
endpoint result: 559
--
molecule: COc1cc(C(=O)c2ccc3c(ccn3Cc3ccc(/C=C/C(=O)NO)cc3)c2)cc(OC)c1OC
endpoint result: 24.3

1. COc1ccc(C(=O)c2ccc3c(ccn3S(=O)(=O)c3ccc(/C=C/C(=O)NO)cc3)c2)cc1
2. COc1ccc(C(=O)c2ccc3c(ccn3Cc3ccc(C(=O)NO)cc3)c2)cc1OC
Query: Name the one with the greater Ratio IC50 value, either 1 or 2 as given. Write the label of whichever entry you select.
Result: 2
(2: 181, 1: 8.4)

* * *

- Organism: Homo sapiens
- protocol text: Selectivity index, ratio of IC50 for human HDAC3 to IC50 for human HDAC6
property measured: Ratio IC50

Worked set:
molecule: COc1cccc(C(=O)c2ccc3c(ccn3Cc3ccc(C(=O)NO)cc3)c2)c1
Ratio IC50: 310
//
molecule: COc1ccc(C(=O)c2ccc3c(ccn3S(=O)(=O)c3cccc(/C=C/C(=O)NO)c3)c2)cc1OC
Ratio IC50: 0.7
//
molecule: COc1ccc(C(=O)c2ccc3c(ccn3S(=O)(=O)c3ccc(/C=C/C(=O)NO)cc3)c2)cc1
Ratio IC50: 3.01

A. COc1ccc(C(=O)c2ccc3c(ccn3Cc3ccc(/C=C/C(=O)NO)cc3)c2)cc1
B. O=C(/C=C/c1cccc(S(=O)(=O)n2ccc3cc(C(=O)c4ccc(F)cc4)ccc32)c1)NO
Query: Name the one with the greater Ratio IC50 value, either A or B as given. Write the label of whichever entry you select.
Result: A
(A: 19, B: 0.04)

P. COc1ccc(C(=O)c2ccc3c(ccn3S(=O)(=O)c3cccc(/C=C/C(=O)NO)c3)c2)cc1
Q. COc1cc(C(=O)c2ccc3c(ccn3S(=O)(=O)c3ccc(/C=C/C(=O)NO)cc3)c2)cc(OC)c1OC
Query: // compare measured Ratio IC50 between P and Q ; output the lower one Write the label of whichever entry you select.
Result: P
(P: 0.3, Q: 1.02)

a. COc1ccc(C(=O)c2ccc3c(ccn3Cc3ccc(C(=O)NO)cc3)c2)cc1OC
b. COc1cccc(C(=O)c2ccc3c(ccn3S(=O)(=O)c3cccc(/C=C/C(=O)NO)c3)c2)c1
c. O=C(NO)c1ccc(Cn2ccc3cc(C(=O)c4ccc(Cl)cc4)ccc32)cc1
Query: Provide the items ranked by increasing Ratio IC50. Please list the labels in the order you were asked to rank them.
Result: b, a, c
